Please respond with reported Ratio IC50 for every item in the list.
species: Homo sapiens; experiment: Selectivity index, ratio of IC50 for inhibition of recombinant human JAK2 to IC50 for inhibition of recombinant human JAK1
A bare number is all that is needed in reply.

Item O=C(Nc1nc2cccc(C3=CC[C@H](NC(=O)[C@H]4CC4(F)F)CC3)n2n1)C1CC1 : provide Ratio IC50 7.4

Item O=C(Nc1nc2cccc([C@H]3CC[C@H](NC(=O)[C@@H]4CC4(F)F)CC3)n2n1)C1CC1 : provide Ratio IC50 26.3

Item O=C(Nc1nc2cccc(C3=CCN(C(=O)C4(F)CC4)C3)n2n1)C1CC1 : provide Ratio IC50 2.1

---

assay: Volume of distribution at steady state in beagle dog at 0.2 mg/kg, iv measured for 24 hrs by LC-MS/MS analysis; assay type: ADME, organism-based, Canis lupus familiaris; conditions: in vivo, read-out: Vdss
Measured Attribute: Vd (L/kg)
Give the number; L/kg is assumed, so skip it.

Item O=C(Nc1nc2cccc(C3CCC4(CC3)CN(C(=O)[C@@H]3CC3(F)F)C4)n2n1)C1CC1 : provide Vd 3.23

---

experiment: AUC in beagle dog at 5 mg/kg, po measured for 24 hrs by LC-MS/MS analysis; format: ADME, organism-based, Canis lupus familiaris; parameters: time 24 hrs, dose 5 mg/kg, route po; details: in vivo
Measured Attribute: AUC at 24 h (ng·h/mL)
Give the number; ng·h/mL is assumed, so skip it.

Item O=C(Nc1nc2cccc(C3CCC4(CC3)CN(C(=O)[C@@H]3CC3(F)F)C4)n2n1)C1CC1 : provide AUC at 24 h 16700

---

Please respond with reported Papp B→A at 2 h, 10 µM for every item in the list.
experiment: Apparent permeability across basolateral to apical side in human Caco-2 cells at 10 uM measured after 120 mins by LC-MS/MS analysis
Give the number; ×10⁻⁶ cm/s is assumed, so skip it.

Item O=C(Nc1nc2cccc(-c3ccc(CN4CCS(=O)(=O)CC4)cc3)n2n1)C1CC1 [FILGOTINIB] : provide Papp B→A at 2 h, 10 µM 24.5

Item O=C(Nc1nc2cccc(C3CCC4(CC3)CCN(C(=O)[C@@H]3CC3(F)F)C4)n2n1)C1CC1 (stereo partly specified) : provide Papp B→A at 2 h, 10 µM 31.2

Item O=C(Nc1nc2cccc([C@H]3CC[C@@H](NC(=O)[C@@H]4CC4(F)F)CC3)n2n1)C1CC1 : provide Papp B→A at 2 h, 10 µM 29.2

Item O=C(Nc1nc2cccc(C3CCC(NC(=O)C4(F)CC4)CC3)n2n1)C1CC1 (stereo unspecified) : provide Papp B→A at 2 h, 10 µM 28.6

Item N#CCC(=O)N1CC2(CCC(c3cccc4nc(NC(=O)C5CC5)nn34)CC2)C1 : provide Papp B→A at 2 h, 10 µM 20.4

Item O=C(Nc1nc2cccc(C3CCC4(CC3)CCN(C(=O)[C@@H]3CC3(F)F)CC4)n2n1)C1CC1 : provide Papp B→A at 2 h, 10 µM 29.1

---

species on record: Homo sapiens; assay: Selectivity index, ratio of IC50 for inhibition of recombinant human JAK2 to IC50 for inhibition of recombinant human JAK1
Measured Attribute: Ratio IC50

Item O=C(Nc1nc2cccc(C3CCC(NC(=O)C4CC4(F)F)CC3)n2n1)C1CC1 (stereo not given) : provide Ratio IC50 7.7

Item O=C(Nc1nc2cccc(C3=CCC(NC(=O)C4CC4(F)F)CC3)n2n1)C1CC1 (stereo not given) : provide Ratio IC50 11.9

Item O=C(Nc1nc2cccc(C3CCC4(CC3)CCN(C(=O)CC(F)(F)F)CC4)n2n1)C1CC1 : provide Ratio IC50 5.4

Item O=C(Nc1nc2cccc([C@H]3CC[C@@H](NC(=O)[C@@H]4CC4(F)F)CC3)n2n1)C1CC1 : provide Ratio IC50 11

Item O=C(Nc1nc2cccc(C3=CCN(C(=O)C4CC4)CC3)n2n1)C1CC1 : provide Ratio IC50 4.7
